Quick list: pest or weed control at 320 g/ha per entry.
Tested on: VERPE
protocol details: Herbicidal activity, test type PE
Type: in vivo
measurement context: TEST-TYP PE, read-out: herbizide Wirkung VERPE
Kindly answer with a numeric value in %, unit omitted.

As a guide, the following entries are already answered.
>>> observed_value("CCN(C)C=Nc1ncc(-c2ccc(Cl)c(C(F)(F)F)c2)cc1C")
90
>>> observed_value("CCN(C)C=Nc1ncc(-c2ccc(F)c(C(F)(F)F)c2)cc1C")
90
>>> observed_value("Cc1cc(-c2ccc(F)c(C(F)(F)F)c2)cnc1N=CN(C)C")
100

Request: Observed pest or weed control at 320 g/ha on VERPE for "CCN(C=Nc1ncc(Cl)cc1-c1cccc(C(F)(F)F)c1)CC" , please.
Response: 90

Request: Give pest or weed control at 320 g/ha (VERPE) of the following compound: "Cc1cc(-c2ccc(Cl)c(C(F)(F)F)c2)cnc1N=CN(C)C"
Response: 80

====

protocol details: logP by HPLC on reversed-phase columns (C 18), EEC Directive 79/831 Annex V.A8
Assay type: physicochemical
measurement context: c18 reversed-phase hplc, reversed-phase (C 18), read-out: log p
Label scheme for chromatographic logP: lower than 2 is not fulfilled, 2 and above is fulfilled.

Request: Quick check, chromatographic logP >= 2? CCN(C=Nc1ncc(Cl)cc1-c1ccc(Cl)c(C(F)(F)F)c1)CC [compound 11]
Response: fulfilled

Request: Answer whether chromatographic logP of Cc1cnc(N=CN2CCCC2)c(-c2ccc(Cl)c(C(F)(F)F)c2)c1 [compound 10] is greater than or equal to 2.
Response: not fulfilled

Request: hey, is chromatographic logP for this one >= 2? CCN(C)C=Nc1ncc(C)cc1-c1ccc(F)c(C(F)(F)F)c1 [compound 18]
Response: not fulfilled

====

Test system: VIOTR
protocol details: Herbicidal activity, test type PO
Type: in vivo
measurement context: TEST-TYP PO, 80 G/HA
quantity: herbizide Wirkung VIOTR

Sample answers from the record:
>>> observed_value("Cc1cc(-c2ccc(F)c(C(F)(F)F)c2)cnc1N=CN(C)C [compound 64]")
80
>>> observed_value("CCN(C)C=Nc1ncc(-c2ccc(F)c(C(F)(F)F)c2)cc1C [compound 66]")
80
>>> observed_value("CCN(C=Nc1ncc(Cl)cc1-c1ccc(F)c(C(F)(F)F)c1)CC [compound 15]")
80

// moving on: another record for herbizide Wirkung VIOTR
Request: Entry CCN(C)C=Nc1ncc(Cl)cc1-c1cccc(C(F)(F)F)c1 [compound 33] has what herbizide Wirkung VIOTR?
Response: 90

====

Test system: STEME
protocol details: Herbicidal activity, test type PE
Assay type: in vivo
measurement context: TEST-TYP PE, read-out: herbizide Wirkung STEME
Parameter pest or weed control at 320 g/ha: see the listing below.
# value in %; strip the unit string

>>> observed_value("CCN(C)C=Nc1ncc(Cl)cc1-c1cccc(C(F)(F)F)c1 [compound 33]")
80
>>> observed_value("Cc1cc(-c2ccc(Cl)c(C(F)(F)F)c2)cnc1N=CN(C)C [compound 59]")
80
>>> observed_value("CCN(C=Nc1ncc(Cl)cc1-c1ccc(F)c(C(F)(F)F)c1)CC [compound 15]")
80
>>> observed_value("Fc1ccc(-c2cc(Cl)cnc2N=CN2CCCC2)cc1C(F)(F)F [compound 16]")
80
>>> observed_value("CCN(C)C=Nc1ncc(C)cc1-c1ccc(F)c(C(F)(F)F)c1 [compound 142]")
90

Request: Which pest or weed control at 320 g/ha is reported for this compound? CCN(C)C=Nc1ncc(-c2ccc(F)c(C(F)(F)F)c2)cc1C [compound 66]
Response: 90

Request: Recorded pest or weed control at 320 g/ha for CCN(C)C=Nc1ncc(Cl)cc1-c1ccc(F)c(C(F)(F)F)c1 [compound 14] , please?
Response: 85

Request: Query (compound): Cc1cc(-c2ccc(F)c(C(F)(F)F)c2)cnc1N=CN(C)C [compound 64] ; field requested: pest or weed control at 320 g/ha
Response: 90

====

Tested on: AMARE
protocol details: Herbicidal activity, test type PO
Type: in vivo
measurement context: TEST-TYP PO, 80 G/HA
quantity: herbizide Wirkung AMARE
I only need the number, thanks.

>>> observed_value("CCN(C=Nc1ncc(Cl)cc1-c1ccc(F)c(C(F)(F)F)c1)CC [compound 140]")
80
>>> observed_value("CCN(C)C=Nc1ncc(Cl)cc1-c1cccc(C(F)(F)F)c1 [compound 33]")
80
>>> observed_value("CCN(C=Nc1ncc(Cl)cc1-c1ccc(F)c(C(F)(F)F)c1)CC [compound 15]")
90
>>> observed_value("Cc1cc(-c2ccc(F)c(C(F)(F)F)c2)cnc1N=CN(C)C [compound 64]")
80
>>> observed_value("CCN(C)C=Nc1ncc(-c2cccc(Cl)c2)cc1C [compound 101]")
80

Continue with the molecule presented below.
Request: Which herbizide Wirkung AMARE is listed for Cc1cc(-c2ccc(F)c(C(F)(F)F)c2)cnc1N=CN(C)C [compound 181] ?
Response: 80

====

Listing of entries alongside the reported pest or weed control at 320 g/ha.
Test system: LOLMU
protocol details: Herbicidal activity, test type PE
Format: in vivo
measurement context: TEST-TYP PE, read-out: herbizide Wirkung LOLMU
Expressed in %, but write only the number.

>>> observed_value("CCN(C)C=Nc1ncc(-c2ccc(F)c(C(F)(F)F)c2)cc1C")
90
>>> observed_value("CCN(C)C=Nc1ncc(-c2cccc(Cl)c2)cc1C")
80
>>> observed_value("Cc1cc(-c2ccc(F)c(C(F)(F)F)c2)cnc1N=CN(C)C")
90

Request: Data request, read-out pest or weed control at 320 g/ha, for "CCN(C=Nc1ncc(Cl)cc1-c1cccc(C(F)(F)F)c1)CC"
Response: 80

Request: Any idea what its pest or weed control at 320 g/ha is? The compound is "CCN(C)C=Nc1ncc(Cl)cc1-c1ccc(F)c(C(F)(F)F)c1"
Response: 100

Request: Which pest or weed control at 320 g/ha is reported for this compound? "Fc1ccc(-c2cc(Cl)cnc2N=CN2CCCC2)cc1C(F)(F)F"
Response: 80

Request: Recorded pest or weed control at 320 g/ha of "CCN(C)C=Nc1ncc(-c2cccc(C(F)(F)F)c2)cc1C" , please.
Response: 90

Request: I am curious: what pest or weed control at 320 g/ha value has been reported for "Cc1cc(-c2cccc(Cl)c2)cnc1N=CN(C)C" ?
Response: 80

====

Recorded pest or weed control at 320 g/ha values for a group of molecules are listed next.
Test system: VERPE
protocol details: Herbicidal activity, test type PE
Type: in vivo
measurement context: TEST-TYP PE, read-out: herbizide Wirkung VERPE
Give just the number in %; leave the unit off.

Example results:
>>> observed_value("CCN(C)C=Nc1ncc(Cl)cc1-c1ccc(F)c(C(F)(F)F)c1")
90
>>> observed_value("Cc1cnc(N=CN2CCCC2)c(-c2ccc(F)c(C(F)(F)F)c2)c1")
90
>>> observed_value("Cc1cnc(N=CN(C)C)c(-c2cccc(C(F)(F)F)c2)c1")
80
>>> observed_value("CCN(C)C=Nc1ncc(-c2ccc(Cl)c(Cl)c2)cc1C")
80
>>> observed_value("CCN(C)C=Nc1ncc(C)cc1-c1ccc(F)c(C(F)(F)F)c1")
100

Request: What measured pest or weed control at 320 g/ha goes with "CCN(C)C=Nc1ncc(C)cc1-c1cccc(C(F)(F)F)c1" ?
Response: 80

Request: Request the reported pest or weed control at 320 g/ha associated with "Fc1ccc(-c2cc(Cl)cnc2N=CN2CCCC2)cc1C(F)(F)F"
Response: 80

Request: Value lookup for pest or weed control at 320 g/ha; key = "CN(C)C=Nc1ncc(Cl)cc1-c1ccc(F)c(C(F)(F)F)c1"
Response: 80

Request: Name the reported pest or weed control at 320 g/ha value associated with the molecule "CCN(C)C=Nc1ncc(Cl)cc1-c1cccc(C(F)(F)F)c1"
Response: 100

====

protocol details: logP by HPLC on reversed-phase columns (C 18), EEC Directive 79/831 Annex V.A8
Format: physicochemical
measurement context: c18 reversed-phase hplc, reversed-phase (C 18), read-out: log p
From the text: Die Messung der logP Werte erfolgte gemäß EEC Directive 79/831 Annex V.A8 durch HPLC (High Performance Liquid Chromatography) an reversed-phase Säulen (C 18), mit der nachfolgenden Methode: […]
# chromatographic logP listing for each entry below
Enter the number alone.

Worked examples follow.
>>> observed_value("CC(=Nc1ncc(Cl)cc1-c1ccc(F)c(C(F)(F)F)c1)N1CCCCC1")
1.74
>>> observed_value("Cc1cnc(N=CN(C(C)C)C(C)C)c(-c2ccc(Cl)c(C(F)(F)F)c2)c1")
2.03
>>> observed_value("FC(F)(F)c1ccc(-c2cc(Cl)cnc2N=CN2CCCC2)cc1Cl")
1.98
>>> observed_value("Cc1cnc(N=CN(C)C)c(-c2ccc(F)c(C(F)(F)F)c2)c1")
1.33
>>> observed_value("CC(C)N(C=Nc1ncc(Cl)cc1-c1ccc(Cl)c(C(F)(F)F)c1)C(C)C")
3.71
>>> observed_value("CCN(C=Nc1ncc(C)cc1-c1ccc(Cl)c(C(F)(F)F)c1)CC")
1.75

Request: Look at this molecule and give its reported chromatographic logP. "CCN(C)C=Nc1ncc(Cl)cc1-c1ccc(C(F)(F)F)c(Cl)c1"
Response: 2.88

Request: Need chromatographic logP of "CC(=Nc1ncc(C)cc1-c1ccc(Cl)c(C(F)(F)F)c1)N(C)C" , thanks.
Response: 0.87

Request: For "CC(=Nc1ncc(C)cc1-c1ccc(F)c(C(F)(F)F)c1)N(C)C" , what is its reported chromatographic logP?
Response: 1.3

Request: Can you look up the measured chromatographic logP of "CCN(C)C=Nc1ncc(Cl)cc1-c1ccc(F)c(C(F)(F)F)c1" for me?
Response: 2.21

Request: Which value of chromatographic logP has been reported for "CCN(C=Nc1ncc(Cl)cc1-c1ccc(F)c(C(F)(F)F)c1)CC" in the records?
Response: 2.59
